Tested on: NCI-H929 complex spheroids, viability % test/control
PROTOCOL_DESCRIPTION: Anticancer human tumor NCI-H929 cell line growth inhibition [RAS];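 further: compound exposure lasted seven days before viability was read; 100% = DMSO vehicle control viability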
CONDITION_SET: second compound 0.000949 µM; first compound 0.00949 µM; stronger effect = lower value
Parameter viability, T/C: see the listing below.
MEASURED_QUANTITY: viability, T/C (%)

COMPOUND	ASSAY_VALUE
CC1(C)CCC(Nc2ncc(C(F)(F)F)c(-c3c[nH]c4c(P(C)(C)=O)c(C#N)ccc34)n2)CN1 (centres undefined) + CCn1c(-c2cc(N3CCN(C)CC3)cnc2C(C)OC)c2c3cc(ccc31)-c1csc(n1)CC(NC(=O)C1CC1C)C(=O)N1CCCC(N1)C(=O)OCC(C)(C)C2	8.16
CCc1c2c(nc3ccc(O)cc13)-c1cc3c(c(=O)n1C2)COC(=O)[C@]3(O)CC + CCn1c(-c2cc(N3CCN(C)CC3)cnc2C(C)OC)c2c3cc(ccc31)-c1csc(n1)CC(NC(=O)C1CC1C)C(=O)N1CCCC(N1)C(=O)OCC(C)(C)C2	1.4
CC1(C)CCC(Nc2ncc(C(F)(F)F)c(-c3c[nH]c4c(P(C)(C)=O)c(C#N)ccc34)n2)CN1 (centres undefined) + CCn1c(-c2cccnc2C(C)OC)c2c3cc(ccc31)N1CCOC(CC(NC(=O)C(C(C)C)N(C)C(=O)C3(F)CCN(C(=O)C#CC(C)(C)N(C)C)CC3)C(=O)N3CCCC(N3)C(=O)OCC(C)(C)C2)C1	4.36
CCc1c2c(nc3ccc(O)cc13)-c1cc3c(c(=O)n1C2)COC(=O)[C@]3(O)CC + CCn1c(-c2cccnc2C(C)OC)c2c3cc(ccc31)N1CCOC(CC(NC(=O)C(C(C)C)N(C)C(=O)C3(F)CCN(C(=O)C#CC(C)(C)N(C)C)CC3)C(=O)N3CCCC(N3)C(=O)OCC(C)(C)C2)C1	1.03

====

Tested on: NCI-H929 complex spheroids, viability % test/control
PROTOCOL_DESCRIPTION: Anticancer human tumor NCI-H929 cell line growth inhibition [RAS];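 further: compound exposure lasted seven days before viability was read; 100% = DMSO vehicle control viability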
CONDITION_SET: second compound 3.16 µM; first compound 0.00316 µM; stronger effect = lower value

MOLECULE	UNIT_INFO	viability, T/C
Nc1ccn(C2OC(CO)C(O)C2(F)F)c(=O)n1 (stereo unspecified) + C#Cc1c(F)ccc2cc(O)cc(-c3ncc4c(N5CC6CCC(C5)N6)nc(OCC56CCCN5CC(F)C6)nc4c3F)c12	%	97.4
C=CC(=O)Nc1cc(Nc2nccc(-c3cn(C)c4ccccc34)n2)c(OC)cc1N(C)CCN(C)C + C#Cc1c(F)ccc2cc(O)cc(-c3ncc4c(N5CC6CCC(C5)N6)nc(OCC56CCCN5CC(F)C6)nc4c3F)c12	%	101
CC(C)n1nc(-c2ccc3oc(N)nc3c2)c2c(N)ncnc21 + C#Cc1c(F)ccc2cc(O)cc(-c3ncc4c(N5CC6CCC(C5)N6)nc(OCC56CCCN5CC(F)C6)nc4c3F)c12	%	107
C=CC(=O)N1CCN(c2nc(OCC3CCCN3C)nc3c(F)c(-c4nc(N)cc(C)c4C(F)(F)F)c(Cl)cc23)C(C)C1 (stereo unspecified) + C#Cc1c(F)ccc2cc(O)cc(-c3ncc4c(N5CC6CCC(C5)N6)nc(OCC56CCCN5CC(F)C6)nc4c3F)c12	%	103
CCN1CCN(Cc2ccc(Nc3ncc(F)c(-c4cc(F)c5nc(C)n(C(C)C)c5c4)n3)nc2)CC1 + C#Cc1c(F)ccc2cc(O)cc(-c3ncc4c(N5CC6CCC(C5)N6)nc(OCC56CCCN5CC(F)C6)nc4c3F)c12	%	97.8
O=C(c1ccc(F)c(F)c1Nc1ccc(I)cc1F)N1CC(O)([C@@H]2CCCCN2)C1 + C#Cc1c(F)ccc2cc(O)cc(-c3ncc4c(N5CC6CCC(C5)N6)nc(OCC56CCCN5CC(F)C6)nc4c3F)c12	%	90.2
